B1: LINE1-full (parent)
chain: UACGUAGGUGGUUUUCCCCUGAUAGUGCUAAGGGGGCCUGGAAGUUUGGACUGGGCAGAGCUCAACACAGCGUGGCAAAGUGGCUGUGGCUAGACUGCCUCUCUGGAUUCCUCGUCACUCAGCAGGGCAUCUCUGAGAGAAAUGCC

# Variants of: B1
# TEST_NAME: self-cleavage, relative activity (ratio to wild type); higher = more cleavage; in vitro, sequencing; the parent is a self-cleaving ribozyme
# key: entry, value: self-cleavage
Provide a numeric answer; units are not to be included.

Below, each entry is followed by its recorded self-cleavage result.
> print(dat)
    mutations  measured.result
1  G54A U115G             1.02
2  A79C U119A             1.01
3  A50G U100C             0.98

Kindly consider the entry below.
So what does the record say about self-cleavage for A64G U81C ? 0.3
